# TARGET_ENTITY: DPP4 (Homo sapiens, UniProt P27487)
# Sequence (P27487 whole entry): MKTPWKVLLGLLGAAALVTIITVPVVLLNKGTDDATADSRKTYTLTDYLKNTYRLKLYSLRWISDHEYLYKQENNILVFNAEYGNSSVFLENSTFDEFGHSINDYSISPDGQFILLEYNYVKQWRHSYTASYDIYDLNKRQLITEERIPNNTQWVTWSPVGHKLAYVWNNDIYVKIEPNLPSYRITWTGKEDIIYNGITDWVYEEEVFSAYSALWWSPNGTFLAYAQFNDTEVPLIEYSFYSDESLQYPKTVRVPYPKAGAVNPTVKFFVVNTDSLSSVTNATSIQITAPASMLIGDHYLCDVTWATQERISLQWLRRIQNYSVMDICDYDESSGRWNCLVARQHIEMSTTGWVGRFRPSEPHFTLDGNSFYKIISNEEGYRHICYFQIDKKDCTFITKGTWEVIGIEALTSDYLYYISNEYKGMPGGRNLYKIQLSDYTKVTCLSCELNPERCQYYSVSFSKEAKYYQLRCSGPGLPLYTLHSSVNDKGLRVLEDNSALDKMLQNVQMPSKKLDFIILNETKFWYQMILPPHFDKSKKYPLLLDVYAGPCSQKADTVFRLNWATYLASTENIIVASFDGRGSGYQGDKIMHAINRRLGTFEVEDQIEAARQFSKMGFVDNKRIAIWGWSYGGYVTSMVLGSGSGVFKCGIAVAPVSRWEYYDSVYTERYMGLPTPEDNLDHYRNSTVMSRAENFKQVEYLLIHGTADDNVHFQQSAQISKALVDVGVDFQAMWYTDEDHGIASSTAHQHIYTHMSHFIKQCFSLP
# TEST_DESCRIPTION: DPP4 inhibition, fluorogenic substrate H-Gly-Pro-AMC
# Type: biochemical
# Parameters: purchased R&D Systems
# PROTOCOL_CONDITIONS: recombinant human DPP4
pIC50: −log10 of the molar value.
Assignment: determine reported pIC50 for the given compounds.

(Q) Give the measured pIC50 of N#Cc1cnc2cccc(N[C@H]3CCN(CC(=O)N4CCC[C@H]4C#N)C3)c2c1 .
(A) < 5.00

(Q) Give the measured pIC50 of CN(c1ccc2cccnc2c1)C1CCN(CC(=O)N2CCC[C@H]2C#N)CC1 .
(A) < 5.00

(Q) Give the measured pIC50 of N#Cc1ccc(N[C@H]2CCN(CC(=O)N3CCC[C@H]3C#N)C2)c2cccnc12 .
(A) < 5.00

(Q) Give the measured pIC50 of Cc1ccc2ncc(N(C)C3CCN(CC(=O)N4CCC[C@H]4C#N)CC3)cc2c1 .
(A) ≤ 4.00

----------
# TARGET_ENTITY: Recombinant human FAP (Homo sapiens)
# Construct: purchased R&D systems
# Sequence (Q12884 1-760): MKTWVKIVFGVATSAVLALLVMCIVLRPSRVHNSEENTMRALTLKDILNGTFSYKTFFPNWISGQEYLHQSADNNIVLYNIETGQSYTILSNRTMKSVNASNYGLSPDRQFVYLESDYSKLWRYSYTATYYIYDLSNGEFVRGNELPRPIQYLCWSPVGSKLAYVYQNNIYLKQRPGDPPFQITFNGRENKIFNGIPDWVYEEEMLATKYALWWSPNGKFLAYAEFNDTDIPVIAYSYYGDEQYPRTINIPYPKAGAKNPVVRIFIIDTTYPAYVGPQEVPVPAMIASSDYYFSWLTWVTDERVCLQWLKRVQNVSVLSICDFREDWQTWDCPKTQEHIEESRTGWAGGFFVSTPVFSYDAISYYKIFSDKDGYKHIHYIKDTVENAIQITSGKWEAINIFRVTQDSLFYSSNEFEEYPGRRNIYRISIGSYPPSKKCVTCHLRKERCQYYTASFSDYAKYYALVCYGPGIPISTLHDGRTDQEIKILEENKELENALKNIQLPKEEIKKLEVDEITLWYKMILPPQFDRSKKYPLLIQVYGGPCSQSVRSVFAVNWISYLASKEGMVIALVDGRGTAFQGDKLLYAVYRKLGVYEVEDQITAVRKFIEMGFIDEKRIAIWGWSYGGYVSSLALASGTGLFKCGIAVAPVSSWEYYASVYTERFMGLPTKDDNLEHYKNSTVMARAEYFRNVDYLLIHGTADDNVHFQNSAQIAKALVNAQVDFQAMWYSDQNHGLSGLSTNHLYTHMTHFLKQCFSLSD
# TEST_DESCRIPTION: FAP inhibition, fluorogenic substrate Z-Gly-Pro-AMC
# Format: biochemical
# PROTOCOL_CONDITIONS: recombinant human FAP, substrate Z-Gly-Pro-AMC
Assignment: determine reported IC50 for the given molecules.
Quick note: give the figure in nM, leave out the unit.

(Q) Give the measured IC50 of COc1cc2c(NC3CCN(CC(=O)N4C[C@@H](F)C[C@H]4C#N)CC3)cccc2cn1 [Example 355] .
(A) 2.7

(Q) Give the measured IC50 of N#C[C@@H]1C[C@H](F)CN1C(=O)CN1CC[C@H](Nc2ccc3ncccc3c2)C1 [Example 250] .
(A) 3.4

(Q) Give the measured IC50 of N#C[C@@H]1C[C@H](F)CN1C(=O)CN1CCC(Oc2cncc3ccccc23)CC1 [Example 420] .
(A) 7

(Q) Give the measured IC50 of N#C[C@@H]1C[C@H](F)CN1C(=O)CN1CC[C@H](Nc2ccc(OCc3ccccc3)c3ncccc23)C1 [Example 268] .
(A) 1

(Q) Give the measured IC50 of N#C[C@@H]1C[C@H](F)CN1C(=O)CN1CC[C@H](Nc2ccc(C(F)(F)F)c3ncccc23)C1 [Example 265] .
(A) 0.8

(Q) Give the measured IC50 of N#C[C@@H]1C[C@H](F)CN1C(=O)CN1CC[C@@H](Nc2cccc3cccnc23)C1 [Example 169] .
(A) 35.4

(Q) Give the measured IC50 of N#C[C@@H]1C[C@H](F)CN1C(=O)CN1CCC(Nc2ccc(F)c3cnccc23)CC1 [Example 357] .
(A) 3.8

(Q) Give the measured IC50 of CN(c1cnc2ccccc2c1)C1CCN(CC(=O)N2C[C@@H](F)C[C@H]2C#N)CC1 [Example 316] .
(A) 3.1

(Q) Give the measured IC50 of COc1ccc(N[C@H]2CCN(CC(=O)N3CCC[C@H]3C#N)C2)c2cccnc12 [Example 243] .
(A) 2.6

(Q) Give the measured IC50 of COc1ccc2nc(C(F)(F)F)cc(OC3CCN(CC(=O)N4C[C@@H](F)C[C@H]4C#N)CC3)c2c1 [Example 414] .
(A) 4.3

(Q) Give the measured IC50 of N#C[C@@H]1C[C@H](F)CN1C(=O)CN1CCC(Nc2ccnc3ccc(Cl)cc23)CC1 [Example 338] .
(A) 6.5

(Q) Give the measured IC50 of N#C[C@@H]1CCCN1C(=O)CN1CC[C@H](Nc2ccc(OCc3ccccc3)c3ncccc23)C1 [Example 248] .
(A) 3.1

(Q) Give the measured IC50 of N#C[C@@H]1CCCN1C(=O)CN1CC[C@@H](Nc2ccc3cccnc3c2)C1 [Example 163] .
(A) 29

----------
# TARGET_ENTITY: recombinant human DPP9 (Homo sapiens, UniProt Q86TI2)
# Construct: purchased R&D Systems
# Sequence (Q86TI2 whole entry): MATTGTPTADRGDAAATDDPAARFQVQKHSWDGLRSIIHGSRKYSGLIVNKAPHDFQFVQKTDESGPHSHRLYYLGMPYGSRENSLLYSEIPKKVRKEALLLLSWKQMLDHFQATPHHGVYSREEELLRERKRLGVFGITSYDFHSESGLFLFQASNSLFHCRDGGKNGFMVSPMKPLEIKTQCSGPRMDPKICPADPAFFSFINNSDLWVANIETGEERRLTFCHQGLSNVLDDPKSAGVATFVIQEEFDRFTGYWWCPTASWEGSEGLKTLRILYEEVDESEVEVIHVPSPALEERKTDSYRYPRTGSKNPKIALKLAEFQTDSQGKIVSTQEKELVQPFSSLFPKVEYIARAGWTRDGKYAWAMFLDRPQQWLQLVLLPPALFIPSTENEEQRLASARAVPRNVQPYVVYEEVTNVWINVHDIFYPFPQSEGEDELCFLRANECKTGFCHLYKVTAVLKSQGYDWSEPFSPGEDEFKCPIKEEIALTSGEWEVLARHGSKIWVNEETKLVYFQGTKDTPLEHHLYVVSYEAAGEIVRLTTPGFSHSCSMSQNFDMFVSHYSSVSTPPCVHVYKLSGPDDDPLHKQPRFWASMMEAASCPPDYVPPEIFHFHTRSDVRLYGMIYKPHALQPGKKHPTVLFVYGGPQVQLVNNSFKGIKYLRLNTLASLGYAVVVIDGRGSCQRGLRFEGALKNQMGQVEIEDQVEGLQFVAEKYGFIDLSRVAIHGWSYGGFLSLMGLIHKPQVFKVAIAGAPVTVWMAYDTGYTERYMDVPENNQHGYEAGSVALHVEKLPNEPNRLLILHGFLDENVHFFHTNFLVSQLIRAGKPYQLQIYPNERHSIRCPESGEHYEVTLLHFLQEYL
# TEST_DESCRIPTION: DPP9 inhibition, fluorogenic substrate H-Gly-Pro-AMC
# Assay type: biochemical
# PROTOCOL_CONDITIONS: 25° C., H-Gly-Pro-AMC substrate
PROPERTY_MEASURED: IC50 (µM)
Quick note: give the figure in µM, leave out the unit.

(Q) Give the measured IC50 of COc1ccc2nccc(O[C@H]3CCN(CC(=O)N4CC(F)(F)C[C@H]4C#N)C3)c2c1 [Example 103] .
(A) 4.75

(Q) Give the measured IC50 of N#C[C@@H]1CCCN1C(=O)CN1CC[C@H](NC(=O)c2coc3cc(O)ccc23)C1 [Example 49] .
(A) 92.6

(Q) Give the measured IC50 of CN(c1ccc2ncccc2c1)[C@@H]1CCN(CC(=O)N2CCC[C@H]2C#N)C1 [Example 140] .
(A) 32.6

(Q) Give the measured IC50 of Cc1ccc2ncc(N(C)[C@H]3CCN(CC(=O)N4CCC[C@H]4C#N)C3)cc2c1 [Example 150] .
(A) 39.6

(Q) Give the measured IC50 of COc1ccc2c(OC3CCN(CC(=O)N4C[C@@H](F)C[C@H]4C#N)CC3)ccnc2c1 [Example 129] .
(A) 4.85

(Q) Give the measured IC50 of N#C[C@@H]1CCCN1C(=O)CN1CC[C@H](Oc2cccc3cnccc23)C1 [Example 65] .
(A) 70.6

----------
# TARGET_ENTITY: recombinant human PREP (Homo sapiens, UniProt P48147)
# Construct: purchased R&D System
# Sequence (P48147 whole entry): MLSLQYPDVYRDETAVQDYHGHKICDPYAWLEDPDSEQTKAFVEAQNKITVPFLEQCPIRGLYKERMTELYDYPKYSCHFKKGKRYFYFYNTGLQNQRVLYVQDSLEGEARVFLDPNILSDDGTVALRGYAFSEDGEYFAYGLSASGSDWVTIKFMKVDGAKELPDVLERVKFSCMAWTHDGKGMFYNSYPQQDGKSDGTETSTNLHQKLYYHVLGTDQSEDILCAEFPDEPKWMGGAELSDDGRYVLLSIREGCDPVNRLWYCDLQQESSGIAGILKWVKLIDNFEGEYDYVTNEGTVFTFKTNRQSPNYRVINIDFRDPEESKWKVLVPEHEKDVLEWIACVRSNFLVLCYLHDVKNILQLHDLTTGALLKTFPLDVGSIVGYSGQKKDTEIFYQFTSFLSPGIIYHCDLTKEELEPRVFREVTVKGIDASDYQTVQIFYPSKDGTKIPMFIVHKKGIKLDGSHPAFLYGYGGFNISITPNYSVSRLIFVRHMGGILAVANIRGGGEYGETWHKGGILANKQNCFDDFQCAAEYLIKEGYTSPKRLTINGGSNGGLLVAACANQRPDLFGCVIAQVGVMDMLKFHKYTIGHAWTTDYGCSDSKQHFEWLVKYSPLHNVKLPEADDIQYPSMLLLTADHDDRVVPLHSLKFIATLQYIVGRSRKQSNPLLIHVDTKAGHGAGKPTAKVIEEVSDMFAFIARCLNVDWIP
# TEST_DESCRIPTION: PREP inhibition, fluorogenic substrate Z-Gly-Pro-AMC
# Format: biochemical
# PROTOCOL_CONDITIONS: Inhibitory Activity (IC50, nM) PREP, recombinant human PREP
Assignment: determine reported IC50 for the given compounds.
Quick note: give the figure in nM, leave out the unit.

(Q) Give the measured IC50 of Cc1ccc(N[C@@H]2CCN(CC(=O)N3C[C@@H](F)C[C@H]3C#N)C2)c2cccnc12 .
(A) 4670

(Q) Give the measured IC50 of COc1cc(N[C@H]2CCN(CC(=O)N3C[C@@H](F)C[C@H]3C#N)C2)c2cccnc2c1 .
(A) 1530

(Q) Give the measured IC50 of CN(c1cncc2ccoc12)C1CCN(CC(=O)N2C[C@@H](F)C[C@H]2C#N)CC1 .
(A) 625

(Q) Give the measured IC50 of COc1ccc(N[C@@H]2CCN(CC(=O)N3C[C@@H](F)C[C@H]3C#N)C2)c2cccnc12 .
(A) 2350

(Q) Give the measured IC50 of N#C[C@@H]1C[C@H](F)CN1C(=O)CN1CCC(Oc2ccc3cnccc3c2)CC1 .
(A) 1410

(Q) Give the measured IC50 of N#C[C@@H]1C[C@H](F)CN1C(=O)CN1CC[C@H](Nc2ccc(C(=O)Nc3cccnc3)c3ncccc23)C1 .
(A) 724

(Q) Give the measured IC50 of COc1cc2nccc(O[C@H]3CCN(CC(=O)N4C[C@@H](F)C[C@H]4C#N)C3)c2cc1OC .
(A) 4890

(Q) Give the measured IC50 of N#C[C@@H]1C[C@H](F)CN1C(=O)CN1CC[C@@H](Nc2cc(F)c3ncccc3c2)C1 .
(A) 3030

(Q) Give the measured IC50 of N#C[C@@H]1C[C@H](F)CN1C(=O)CN1CCC(Nc2ccc(Cl)c3cnccc23)CC1 .
(A) 3570

(Q) Give the measured IC50 of N#C[C@@H]1C[C@H](F)CN1C(=O)CN1CC[C@@H](Nc2cc(Cl)c3ncccc3c2)C1 .
(A) 3150

(Q) Give the measured IC50 of N#C[C@@H]1C[C@H](F)CN1C(=O)CN1CCC(Nc2ccc(C(=O)Nc3ccncc3)c3ncccc23)CC1 .
(A) 535

(Q) Give the measured IC50 of N#C[C@@H]1C[C@H](F)CN1C(=O)CN1CCC(Nc2cccc3cnccc23)CC1 .
(A) 7850

(Q) Give the measured IC50 of N#C[C@@H]1C[C@H](F)CN1C(=O)CN1CCC(Nc2ccc(C(=O)Nc3ccccn3)c3ncccc23)CC1 .
(A) 78.3

(Q) Give the measured IC50 of CC(=O)Nc1ccc(N[C@H]2CCN(CC(=O)N3CCC[C@H]3C#N)C2)c2cccnc12 .
(A) 6440

(Q) Give the measured IC50 of N#C[C@@H]1C[C@H](F)CN1C(=O)CN1CC[C@@H](Nc2cnc3nc(Cl)ccc3c2)C1 .
(A) 4240
